assay name: Bioavailability in rat at 15 umol/kg, po
Type: ADME, organism-based
reported conditions: in vivo
result type: bioavailability
For clarity, give the value followed by its unit.

For record CC(C)(N)C(=O)N[C@H](COCc1ccccc1)c1nnnn1CCOC(=O)NCCCCO the listed bioavailability is 9%

###

tested target: Cytochrome P450 1A2 (Homo sapiens)
Sequence (P05177 whole entry): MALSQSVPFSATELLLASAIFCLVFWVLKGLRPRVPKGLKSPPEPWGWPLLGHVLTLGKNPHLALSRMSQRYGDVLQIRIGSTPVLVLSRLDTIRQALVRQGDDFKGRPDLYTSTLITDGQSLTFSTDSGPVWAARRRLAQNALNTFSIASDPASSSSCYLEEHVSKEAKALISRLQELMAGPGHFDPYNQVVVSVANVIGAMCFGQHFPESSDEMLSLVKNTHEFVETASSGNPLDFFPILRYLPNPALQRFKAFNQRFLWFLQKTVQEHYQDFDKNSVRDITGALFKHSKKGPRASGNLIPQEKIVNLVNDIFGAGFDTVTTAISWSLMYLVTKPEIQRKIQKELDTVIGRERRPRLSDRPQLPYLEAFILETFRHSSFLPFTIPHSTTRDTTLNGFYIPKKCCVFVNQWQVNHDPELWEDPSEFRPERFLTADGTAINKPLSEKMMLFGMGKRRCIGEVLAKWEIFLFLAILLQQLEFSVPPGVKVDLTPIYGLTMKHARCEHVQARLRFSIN
result type: IC50

For record CC(C)(N)C(=O)N[C@H](COCc1ccccc1)c1nnnn1CCOC(=O)NCCCCO the listed IC50 is > 100 µM

###

tested target: Growth hormone secretagogue receptor type 1 (Homo sapiens)
assay name: Intrinsic activity at human GHS receptor in H4 glioma cells assessed by measuring intracellular calcium concentration by FLIPR assay
pEC50: −log10 of the molar value.
Kindly return yes if reported pEC50 is no lower than 8; return no if it is lower.

Reported pEC50 reaches at least 8 for CN(CCCCO)C(=O)OCCn1nnnc1[C@@H](COCc1ccccc1)NC(=O)C(C)(C)N ?
yes

Reported pEC50 reaches at least 8 for CC(C)(N)C(=O)N[C@H](COCc1ccccc1)c1nnnn1CCOC(=O)NCCO ?
yes

Reported pEC50 reaches at least 8 for CC(C)(N)C(=O)N[C@H](COCc1ccccc1)c1nnnn1CCOC(=O)N1CC[C@@H](O)C1 ?
yes

Reported pEC50 reaches at least 8 for CC(C)(N)C(=O)N[C@H](COCc1ccccc1)c1nnnn1CCOC(=O)NCCCCO ?
yes

Reported pEC50 reaches at least 8 for CC(=O)NCCCCNC(=O)OCCn1nnnc1[C@@H](COCc1ccccc1)NC(=O)C(C)(C)N ?
no

Reported pEC50 reaches at least 8 for CC(C)(N)C(=O)N[C@H](COCc1ccccc1)c1nnnn1CCOC(=O)NCCCO ?
yes

###

tested target: UniProtKB P11712
Sequence (P11712 whole entry): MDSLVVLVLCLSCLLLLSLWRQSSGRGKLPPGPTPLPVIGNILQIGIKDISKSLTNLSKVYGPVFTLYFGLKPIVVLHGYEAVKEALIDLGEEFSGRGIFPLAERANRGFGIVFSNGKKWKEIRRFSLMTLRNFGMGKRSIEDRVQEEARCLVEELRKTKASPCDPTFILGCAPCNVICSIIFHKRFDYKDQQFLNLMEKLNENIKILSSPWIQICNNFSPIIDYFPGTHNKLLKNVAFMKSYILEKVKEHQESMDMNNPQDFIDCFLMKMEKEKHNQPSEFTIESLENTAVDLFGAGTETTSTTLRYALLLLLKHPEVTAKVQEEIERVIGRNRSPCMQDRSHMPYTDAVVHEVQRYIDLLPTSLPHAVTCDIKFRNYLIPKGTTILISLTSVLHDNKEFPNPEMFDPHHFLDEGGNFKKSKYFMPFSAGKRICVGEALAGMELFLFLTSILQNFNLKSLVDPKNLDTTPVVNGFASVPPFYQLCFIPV
result type: IC50

For record CC(C)(N)C(=O)N[C@H](COCc1ccccc1)c1nnnn1CCOC(=O)NCCCCO the listed IC50 is > 100 µM

###

tested target: Cytochrome P450 2D6 (Homo sapiens, UniProt P10635)
Sequence (P10635 whole entry): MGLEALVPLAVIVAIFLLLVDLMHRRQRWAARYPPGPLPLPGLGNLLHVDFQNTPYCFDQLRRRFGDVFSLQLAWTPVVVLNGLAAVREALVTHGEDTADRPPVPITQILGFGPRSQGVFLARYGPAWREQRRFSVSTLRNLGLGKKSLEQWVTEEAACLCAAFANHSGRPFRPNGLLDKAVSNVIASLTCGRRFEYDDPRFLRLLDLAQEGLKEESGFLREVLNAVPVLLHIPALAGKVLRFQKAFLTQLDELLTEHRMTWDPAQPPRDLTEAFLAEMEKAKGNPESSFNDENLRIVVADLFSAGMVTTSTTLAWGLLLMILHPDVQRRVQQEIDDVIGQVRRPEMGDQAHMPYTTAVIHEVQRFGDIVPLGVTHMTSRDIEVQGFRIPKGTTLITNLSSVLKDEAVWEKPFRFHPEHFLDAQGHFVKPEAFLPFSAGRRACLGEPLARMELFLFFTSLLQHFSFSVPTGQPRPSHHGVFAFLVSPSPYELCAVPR
pIC50: −log10 of the molar value.
result type: pIC50

For record CC(C)(N)C(=O)N[C@H](COCc1ccccc1)c1nnnn1CCOC(=O)NCCCCO the listed pIC50 is < 4.00

###

tested target: Cytochrome P450 2C19 (Homo sapiens, UniProt P33261)
Sequence (P33261 whole entry): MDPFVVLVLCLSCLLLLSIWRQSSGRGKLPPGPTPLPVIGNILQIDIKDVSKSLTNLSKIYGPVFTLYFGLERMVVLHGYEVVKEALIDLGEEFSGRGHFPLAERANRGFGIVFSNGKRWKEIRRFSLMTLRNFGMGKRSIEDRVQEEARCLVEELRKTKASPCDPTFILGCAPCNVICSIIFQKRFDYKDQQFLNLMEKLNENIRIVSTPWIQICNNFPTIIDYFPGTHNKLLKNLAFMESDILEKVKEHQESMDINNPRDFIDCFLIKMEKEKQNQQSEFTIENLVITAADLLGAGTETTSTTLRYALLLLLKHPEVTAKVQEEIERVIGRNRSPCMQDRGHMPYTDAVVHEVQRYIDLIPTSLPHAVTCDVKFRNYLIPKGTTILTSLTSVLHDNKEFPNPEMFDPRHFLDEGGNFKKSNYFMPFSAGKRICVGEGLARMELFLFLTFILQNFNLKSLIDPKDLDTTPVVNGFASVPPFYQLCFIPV
assay name: Inhibition of CYP2C19
Type: ADME
result type: IC50

For record CC(C)(N)C(=O)N[C@H](COCc1ccccc1)c1nnnn1CCOC(=O)NCCCCO the listed IC50 is > 100 µM

###

System: Macaca fascicularis
assay name: Half life in monkey at 10 umol/kg, po
reported conditions: cynomolgus monkey, in vivo
result type: half-life (h)
Provide only the numeric value, understood in h.

For record CC(C)(N)C(=O)N[C@H](COCc1ccccc1)c1nnnn1CCOC(=O)NCCCCO the listed half-life is 1.1

###

assay name: Half life in rat at 15 umol/kg, po
Type: ADME, organism-based
reported conditions: in vivo
result type: half-life
For clarity, give the value followed by its unit.

For record CC(C)(N)C(=O)N[C@H](COCc1ccccc1)c1nnnn1CCOC(=O)NCCCCO the listed half-life is 42 min

###

tested target: Growth hormone secretagogue receptor type 1 (Homo sapiens, UniProt Q92847)
Sequence (Q92847 whole entry): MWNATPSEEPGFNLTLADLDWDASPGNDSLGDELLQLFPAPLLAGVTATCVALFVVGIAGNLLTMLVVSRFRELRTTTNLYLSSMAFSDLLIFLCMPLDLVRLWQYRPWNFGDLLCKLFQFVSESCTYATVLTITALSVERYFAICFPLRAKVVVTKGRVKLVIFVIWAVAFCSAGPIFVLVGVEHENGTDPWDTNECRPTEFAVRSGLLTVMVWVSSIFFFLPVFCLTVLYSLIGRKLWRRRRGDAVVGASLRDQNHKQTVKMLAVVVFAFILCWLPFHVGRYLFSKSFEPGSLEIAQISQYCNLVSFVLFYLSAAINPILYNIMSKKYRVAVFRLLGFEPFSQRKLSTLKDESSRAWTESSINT
assay name: Intrinsic activity at human GHS receptor in H4 glioma cells assessed by measuring intracellular calcium concentration by FLIPR assay
Type: functional, cell-based
result type: pEC50
Note: pEC50 values are expressed as the negative base-10 logarithm of concentration in M.

For record CC(=O)N[C@@H]1CCN(C(=O)OCCn2nnnc2[C@@H](COCc2ccccc2)NC(=O)C(C)(C)N)C1 the listed pEC50 is 8.48

For record CC1(O)CCN(C(=O)OCCn2nnnc2[C@@H](COCc2ccccc2)NC(=O)C(C)(C)N)C1 (stereo partly drawn) the listed pEC50 is 8.00

For record CC(C)(N)C(=O)N[C@H](COCc1ccccc1)c1nnnn1CCOC(=O)NCCCn1ccnc1 the listed pEC50 is 7.34
